These entries and their values trace back to ChEMBL document CHEMBL2321760.

Here, each record is paired with measured CC50 data.
# TEST_DESCRIPTION: Cytotoxicity against Chinese hamster BRCA2-deficient VC8 cells assessed as growth inhibition
# Type: cell-based
# PROTOCOL_CONDITIONS: Cricetulus griseus, V-C8
MEASURED_PROPERTY: CC50

compound="O=C(NC1CNC(=O)c2ccccc21)c1cccc(Cc2n[nH]c(=O)c3ccccc23)c1 (stereo not drawn)" measured_property=CC50 test_value="> 10 µM"
compound="CN(C(=O)c1cc(Cc2n[nH]c(=O)c3ccccc23)ccc1F)C1CC(=O)c2ccccc21 (stereo not drawn)" measured_property=CC50 test_value="4.68 µM"
compound="NC1CC2c3c(cccc31)CCN2C(=O)c1cc(Cc2n[nH]c(=O)c3ccccc23)ccc1F (stereo not drawn)" measured_property=CC50 test_value="> 10 µM"
